The reported numbers originate from ChEMBL document CHEMBL1144684.

ASSAY_PROTOCOL: AUC (0 to 24 hrs) in mouse at 10 mg/kg, po
Format: ADME, organism-based
Design: time < 24 hr, dose 10 mg/kg, route oral
CONDITIONS: plasma
QUANTITY_MEASURED: AUC(0-t) at 24 h (ng·h/mL)
Expressed in ng·h/mL, but write only the number.

Enquiry: Identify the reported AUC(0-t) at 24 h for the following entry. COc1cc2nccc(Oc3ccc4c(C(N)=O)cccc4c3)c2cc1OC
Return: 1500

----------
ASSAY_PROTOCOL: Tmax in cynomolgus monkey at 2 mg/kg, po
Type: ADME, organism-based, Macaca fascicularis
Design: dose 2 mg/kg, route oral
CONDITIONS: in vivo
QUANTITY_MEASURED: Tmax (min)
Expressed in min, but write only the number.

Enquiry: Identify the reported Tmax for the following entry. COc1cc2nccc(Oc3ccc4c(C(N)=O)cccc4c3)c2cc1OC
Return: 49.8

----------
ASSAY_PROTOCOL: AUC (0 to infinity) in Sprague-Dawley rat at 10 mg/kg, po
Assay type: ADME, organism-based
Set-up: dose 10 mg/kg, route oral, time infinity
CONDITIONS: plasma
QUANTITY_MEASURED: AUC(0-inf) (ng·h/mL)
Expressed in ng·h/mL, but write only the number.

Enquiry: Identify the reported AUC(0-inf) for the following entry. COc1cc2nccc(Oc3ccc4c(C(=O)NC5CC5)cccc4c3)c2cc1OC
Return: 50200

----------
ASSAY_PROTOCOL: Cmax in VEGF-soaked disk implanted in Sprague-Dawley rat
Type: ADME, organism-based
CONDITIONS: in vivo
QUANTITY_MEASURED: Cmax (nM)
Expressed in nM, but write only the number.

Enquiry: Identify the reported Cmax for the following entry. COc1cc2nccc(Oc3ccc4c(C(=O)NC5CC5)cccc4c3)c2cc1OC
Return: 20

Enquiry: Identify the reported Cmax for the following entry. COc1cc2nccc(Oc3ccc4c(C(N)=O)cccc4c3)c2cc1OC
Return: 50

Enquiry: Identify the reported Cmax for the following entry. COCCNC(=O)c1cccc2cc(Oc3ccnc4cc(OC)c(OC)cc34)ccc12
Return: 40

----------
ASSAY_PROTOCOL: Cmax in Sprague-Dawley rat at 10 mg/kg, po
Format: ADME, organism-based
Design: dose 10 mg/kg, route oral
CONDITIONS: in vivo
QUANTITY_MEASURED: Cmax (ng/mL)
Expressed in ng/mL, but write only the number.

Enquiry: Identify the reported Cmax for the following entry. COc1cc2nccc(Oc3ccc4c(C(=O)NC5CC5)cccc4c3)c2cc1OC
Return: 6150

----------
For reference, IC50 measured on Angiopoietin-1 receptor (Homo sapiens, UniProt Q02763):
Just so you know, I need the unit written after the number.

Reference set (4 entries):
In [3]: df
Out[3]:
                           smiles_structure  measured
0  COc1ccc2c(Oc3ccc4c(C(N)=O)cccc4c3)ccnc2c1     25 µM
1  COc1cc2nccc(Oc3ccc4c(C(=O)NCC5CC5)cccc4c3)c2cc1OC    9.4 µM
2  COc1cc2nccc(Oc3ccc4c(C(N)=O)cccc4c3)c2cc1C(N)=O    5.3 µM
3  COc1cc2nccc(Oc3ccc4c(C(=O)NC5CCC5)cccc4c3)c2cc1OC      4 µM

Consider now this further molecule.
Enquiry: Identify the reported IC50 for the following entry. COCCNC(=O)c1cccc2cc(Oc3ccnc4cc(OC)ccc34)ccc12
Return: 25 µM

----------
ASSAY_PROTOCOL: Volume of distribution at steady state in dog at 0.5 mg/kg, iv
Assay type: ADME, organism-based, Canis lupus familiaris
Set-up: dose 0.5 mg/kg, route intravenous
CONDITIONS: in vivo, read-out: Vdss
QUANTITY_MEASURED: Vd (L/kg)
Expressed in L/kg, but write only the number.

Enquiry: Identify the reported Vd for the following entry. COc1cc2nccc(Oc3ccc4c(C(N)=O)cccc4c3)c2cc1OC
Return: 1.86

----------
ASSAY_PROTOCOL: Protein binding in dog plasma
Type: ADME, organism-based, Canis lupus familiaris
CONDITIONS: read-out: PPB (converted)
QUANTITY_MEASURED: fraction unbound
No unit in the answer, only the number.

Enquiry: Identify the reported fraction unbound for the following entry. COc1cc2nccc(Oc3ccc4c(C(N)=O)cccc4c3)c2cc1OC
Return: 0.038

----------
For reference, IC50 measured on Tyrosine-protein kinase Lck (Homo sapiens, UniProt P06239):
Expressed in nM, but write only the number.

Reference set (3 entries):
>>> print(df.to_string())
                           smiles_structure  quantity_measured  readout_units  measured
0  COc1cc2nccc(Oc3ccc4c(C(N)=O)cccc4c3)c2cc1OC               IC50             nM       300
1  COc1cc2nccc(Oc3ccc4c(C(=O)NC5CCC5)cccc4c3)c2cc1OC               IC50             nM      1000
2  COc1cc2nccc(Oc3ccc4c(C(=O)NC5(C)CC5)cccc4c3)c2cc1OC               IC50             nM      2000

Enquiry: Identify the reported IC50 for the following entry. CCNC(=O)c1cccc2cc(Oc3ccnc4cc(OC)c(OC)cc34)ccc12
Return: 1200

Enquiry: Identify the reported IC50 for the following entry. COc1cc2nccc(Oc3ccc4c(C(=O)NC(C)C)cccc4c3)c2cc1OC
Return: 1800

Enquiry: Identify the reported IC50 for the following entry. COCCNC(=O)c1cccc2cc(Oc3ccnc4cc(OC)c(OC)cc34)ccc12
Return: 1200

----------
ASSAY_PROTOCOL: Intrinsic clearance in rat liver microsomes at 1 uM
Type: ADME, Microsome
CONDITIONS: read-out: Stability
Here the recorded microsomal CLint at 1 µM is given for each entry.
Expressed in µL/min/mg, but write only the number.

In [3]: df
Out[3]:
                           smiles_structure  measured
0  COc1cc2nccc(Oc3ccc4c(C(N)=O)cccc4c3)c2cc1OC        32
1  COCCNC(=O)c1cccc2cc(Oc3ccnc4cc(OC)c(OC)cc34)ccc12        48
2  COCCNC(=O)c1cccc2cc(Oc3ccnc4cc(OC)c(C(N)=O)cc34)ccc12        95
3  COc1cc2nccc(Oc3ccc4c(C(=O)NC5CC5)cccc4c3)c2cc1OC        21

Enquiry: Identify the reported microsomal CLint at 1 µM for the following entry. COc1cc2nccc(Oc3ccc4c(C(=O)NC5CC5)cccc4c3)c2cc1C(N)=O
Return: 16

----------
ASSAY_PROTOCOL: Protein binding in cynomolgus monkey plasma
Assay type: ADME, cell-free, Macaca fascicularis
CONDITIONS: read-out: PPB (converted)
QUANTITY_MEASURED: fraction unbound
No unit in the answer, only the number.

Enquiry: Identify the reported fraction unbound for the following entry. COc1cc2nccc(Oc3ccc4c(C(N)=O)cccc4c3)c2cc1OC
Return: 0.008

----------
Here the recorded IC50 is given for each entry.
TARGET_OR_SYSTEM: Aurora kinase B (Homo sapiens)
Sequence (Q96GD4 whole entry): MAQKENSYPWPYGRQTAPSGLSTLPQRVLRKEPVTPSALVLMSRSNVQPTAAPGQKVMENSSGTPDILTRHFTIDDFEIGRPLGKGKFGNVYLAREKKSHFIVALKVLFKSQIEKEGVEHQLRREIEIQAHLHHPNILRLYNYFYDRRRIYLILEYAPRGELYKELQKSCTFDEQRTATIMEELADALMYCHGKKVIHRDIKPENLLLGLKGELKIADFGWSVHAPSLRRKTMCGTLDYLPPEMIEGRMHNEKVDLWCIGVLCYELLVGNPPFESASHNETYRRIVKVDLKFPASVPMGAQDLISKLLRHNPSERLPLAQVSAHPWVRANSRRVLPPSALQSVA
Expressed in nM, but write only the number.

>>> df
                           smiles_structure  measured
0  CCNC(=O)c1cccc2cc(Oc3ccnc4cc(OC)c(OC)cc34)ccc12        46
1  COc1cc2ncnc(Oc3ccc4c(C(N)=O)cccc4c3)c2cc1OC       680
2  COCCNC(=O)c1cccc2cc(Oc3ccnc4cc(OC)c(OC)cc34)ccc12       130
3  COc1cc2nccc(Oc3ccc4c(C(=O)NC5CC5)cccc4c3)c2cc1OC       118
4  COc1cc2nccc(Oc3ccc4c(C(=O)NCC5CC5)cccc4c3)c2cc1OC        10

Enquiry: Print Aurora kinase B (Homo sapiens) IC50 for COc1cc2nccc(Oc3ccc4c(C(N)=O)cccc4c3)c2cc1OC .
Return: 220

----------
ASSAY_PROTOCOL: Oral bioavailability in Sprague-Dawley rat at 10 mg/kg
Format: ADME, organism-based
CONDITIONS: in vivo
QUANTITY_MEASURED: bioavailability (%)
Expressed in %, but write only the number.

Enquiry: Identify the reported bioavailability for the following entry. COc1cc2nccc(Oc3ccc4c(C(=O)NC5CC5)cccc4c3)c2cc1OC
Return: 66

----------
For reference, pIC50 measured on Tyrosine-protein kinase Lyn (Homo sapiens, UniProt P07948):
The value called pIC50 is obtained by taking minus log10 of the concentration in mol/L.

                           smiles_structure  measured
0  COc1cc2nccc(Oc3ccc4c(C(N)=O)cccc4c3)c2cc1OC      7.06
1  COCCNC(=O)c1cccc2cc(Oc3ccnc4cc(OC)c(OC)cc34)ccc12      6.56

Enquiry: Print Tyrosine-protein kinase Lyn (Homo sapiens, UniProt P07948) pIC50 for COc1cc2nccc(Oc3ccc4c(C(=O)NC5CC5)cccc4c3)c2cc1OC .
Return: 7.57
